System: Chinese hamster ovary (CHO) cells
Assay: Protein synthesis assay (puromycin incorporation, Western blot)
Format: cell-based
Settings: Cricetulus griseus, CHO, 2 h, read-out: % Protein synthesis relative to untreated (1 μM test compound)
The compounds listed here are annotated with their activity at 1 µM.
// return numeric value only (unit: %, not printed)

Reference set (2 entries):
Query block: Recall the reported activity at 1 µM of O=C(COc1ccc(Cl)cc1)N[C@H]1CC[C@H](c2nnc(-c3ccc(Cl)cc3)o2)CC1 when tested on Chinese hamster ovary (CHO) cells.
Result block: 96.9

Query block: Recall the reported activity at 1 µM of O=C(Nc1ccc2cc(Cl)ccc2n1)[C@H]1CC[C@H](c2nc(-c3ccc(Cl)cc3)co2)CC1 when tested on Chinese hamster ovary (CHO) cells.
Result block: 136

Below: the item to evaluate.
Query block: Recall the reported activity at 1 µM of O=C(Nc1ccc2cc(Cl)ccc2n1)[C@H]1CC[C@H](c2nc(-c3ccc(Cl)cc3)cs2)CC1 when tested on Chinese hamster ovary (CHO) cells.
Result block: 11.4

---

Tested on: Chinese hamster ovary (CHO) cells
Assay: Protein synthesis assay (puromycin incorporation, Western blot)
Format: cell-based
Conditions: Cricetulus griseus; unstressed CHO cells (without Tg), 1 μM test compound, 2 hours; media alone = 100%; read-out: % Protein synthesis relative to untreated (1 μM test compound)
reported.endpoint: activity at 1 µM (%)
// return numeric value only (unit: %, not printed)

Reference set (6 entries):
Query block: Return activity at 1 µM (reported value) for this compound: O=C(COc1ccc(Cl)c(F)c1)N[C@H]1CC[C@H](c2nnc(Cc3ccc(Cl)c(F)c3)o2)CC1
Result block: 94

Query block: Return activity at 1 µM (reported value) for this compound: O=C(COc1ccc(Cl)c(F)c1)N[C@H]1CC[C@@H](c2cnn(-c3ccc(Cl)cc3)c2)CC1
Result block: 6.4

Query block: Return activity at 1 µM (reported value) for this compound: O=C(NC[C@H]1CC[C@H](c2nnc(-c3ccc(Cl)cc3)o2)CC1)c1cc2cc(Cl)ccc2o1
Result block: 136

Query block: Return activity at 1 µM (reported value) for this compound: O=C(N[C@H]1CC[C@H](c2nnc(COc3ccc(Cl)cc3)o2)CC1)c1cnc(C(F)F)cn1
Result block: 115

Query block: Return activity at 1 µM (reported value) for this compound: O=C(COc1ccc(Cl)c(F)c1)N[C@H]1CC[C@H](c2nnc(COc3ccc(Cl)cc3)o2)CC1
Result block: 144

Query block: Return activity at 1 µM (reported value) for this compound: O=C(COc1ccc(Cl)c(F)c1)N[C@H]1CC[C@H](c2nnc([C@H]3CNc4cc(Cl)ccc4O3)o2)CC1 (single isomer, unassigned)
Result block: 86.3

***
Query block: Return activity at 1 µM (reported value) for this compound: O=C(N[C@H]1CC[C@H](c2nnc(COc3ccc(Cl)cc3)o2)CC1)C1CNc2cc(Cl)ccc2O1 (stereo partly shown)
Result block: 140

---

The compounds listed here are annotated with their activity at 1 µM.
System: Chinese hamster ovary (CHO) cells
Test: Protein synthesis assay (puromycin incorporation, Western blot)
Format: cell-based
Settings: Cricetulus griseus; unstressed CHO cells (without Tg), 1 μM test compound, 2 hours; media alone = 100%; read-out: % Protein synthesis relative to untreated (1 μM test compound)
# output: number + unit

Reference set (3 entries):
Query block: Return activity at 1 µM (reported value) for this compound: O=C(COc1ccc(Cl)c(F)c1)N[C@H]1CC[C@H](c2nnc(-c3ccc(Cl)cc3)o2)CC1
Result block: 80.9%

Query block: Return activity at 1 µM (reported value) for this compound: O=C(N[C@H]1CC[C@H](c2nnc(-c3ccc(Cl)cc3)o2)CC1)c1cnc(C(F)F)cn1
Result block: 103%

Query block: Return activity at 1 µM (reported value) for this compound: O=C(N[C@H]1CC[C@H](c2nnc(COc3ccc(Cl)cc3)o2)CC1)c1ccc2cc(Cl)ccc2n1
Result block: 204%

***
Query block: Return activity at 1 µM (reported value) for this compound: O=C(Nc1ccc2cc(Cl)ccc2n1)[C@H]1CC[C@H](c2nnc([C@H]3CC[C@H](C(F)(F)F)CC3)o2)CC1
Result block: 16.7%

Query block: Return activity at 1 µM (reported value) for this compound: O=C(Nc1ccc2cc(Cl)ccc2n1)[C@H]1CC[C@H](c2nnc(C3CNc4cc(Cl)ccc4O3)o2)CC1 (stereo partly shown)
Result block: 81.8%

Query block: Return activity at 1 µM (reported value) for this compound: O=C(COc1ccc(Cl)c(F)c1)N[C@H]1CC[C@H](c2cnn(-c3ccc(Cl)cc3)c2)CC1
Result block: 24.3%

Query block: Return activity at 1 µM (reported value) for this compound: O=C(N[C@H]1CC[C@H](c2nnc(COc3ccc(Cl)cc3)o2)CC1)c1cc2cc(Cl)ccc2o1
Result block: 165%

---

System: Chinese hamster ovary (CHO) cells
Test: Protein synthesis assay (puromycin incorporation, Western blot)
Type: cell-based
Conditions: Cricetulus griseus; unstressed CHO cells (without Tg), 1 μM test compound, 2 hours; media alone = 100%; read-out: % Protein synthesis relative to untreated (1 μM test compound)
Rule: activity at 1 µM below 20% gives yes. Equal to or above 20% gives no.

Worked set:
Query block: Determine whether this compound shows activity at 1 µM lower than 20% (ties excluded): O=C(Nc1ccc2cc(Cl)ccc2n1)[C@H]1CC[C@H](c2nnc(-c3ccc4cc(Cl)ccc4n3)o2)CC1
Result block: yes

Query block: Determine whether this compound shows activity at 1 µM lower than 20% (ties excluded): O=C(Nc1ccc2cc(Cl)ccc2n1)[C@H]1CC[C@H](c2nnc(C3CCC(F)(F)CC3)o2)CC1
Result block: no

Query block: Determine whether this compound shows activity at 1 µM lower than 20% (ties excluded): O=C(Nc1ccc2cc(Cl)ccc2n1)[C@H]1CC[C@H](c2nnc(C3CCC(C(F)(F)F)CC3)o2)CC1 (some centres unmarked)
Result block: yes

***
Query block: Determine whether this compound shows activity at 1 µM lower than 20% (ties excluded): O=C(COc1ccc(Cl)c(F)c1)NN1CCC(c2nnc(COc3ccc(Cl)cc3)o2)CC1
Result block: no

Query block: Determine whether this compound shows activity at 1 µM lower than 20% (ties excluded): O=C(N[C@H]1CC[C@H](c2nnc(-c3ccc(Cl)cc3)o2)CC1)c1cc2cc(Cl)ccc2o1
Result block: no

---

The compounds listed here are annotated with their activity at 1 µM.
Test system: Chinese hamster ovary (CHO) cells
Test: Protein synthesis assay (puromycin incorporation, Western blot)
Format: cell-based
Details: Cricetulus griseus, CHO, 2 h, read-out: % Protein synthesis relative to untreated (1 μM test compound)
// return numeric value only (unit: %, not printed)

Query block: Return activity at 1 µM (reported value) for this compound: O=C(NC[C@H]1CC[C@H](c2nnc(-c3ccc(Cl)cc3)o2)CC1)c1ccc2cc(Cl)ccc2n1
Result block: 158

Query block: Return activity at 1 µM (reported value) for this compound: O=C(Nc1ccc2cc(Cl)ccc2n1)[C@H]1CC[C@H](c2nnc(-c3ccc(Cl)cc3)o2)CC1
Result block: 100

Query block: Return activity at 1 µM (reported value) for this compound: O=C(COc1ccc(Cl)cc1)NC[C@H]1CC[C@H](c2nnc(-c3ccc(Cl)cc3)o2)CC1
Result block: 123

Below: the item to evaluate.
Query block: Return activity at 1 µM (reported value) for this compound: O=C(COc1ccc(Cl)c(F)c1)N[C@H]1CC[C@H](c2nc(-c3ccc(Cl)cc3)cs2)CC1
Result block: 83.4
